Listing: GI50 of selected molecules
# Test system: A549
# TEST NAME: Cytotoxicity against human A549 cells by SRB assay
# Assay type: functional
// units = µM; emit number, no label

Query string: Using the record for `C=C1CCC[C@H]2[C@](C)(Cc3cc(OC(C)=O)ccc3O)[C@@H](C)CC[C@]12C` , report its GI50.
Result string: 25.5

Query string: Using the record for `CC1(C)CCC[C@]2(C)[C@@H](Cc3cc(O)ccc3O)[C@](C)(O)CC[C@@H]12` , report its GI50.
Result string: 17.4

Query string: Using the record for `CC1=CC[C@H]2C(C)(C)CCC[C@]2(C)[C@H]1C[C@H]1C(=O)C=C[C@@H]1O` , report its GI50.
Result string: 12.9

Query string: Using the record for `CC(=O)Oc1ccc(O)c(C[C@H]2C(C)=CC[C@H]3C(C)(C)CCC[C@]23C)c1O` , report its GI50.
Result string: 10.5
